Assay: small molecules captured by biotinylated probe aFST – biochemical, small-molecule microarray, fluorescence 635/667, stem cell growth factor project, primary screen (AID 1086);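 further: score merges 667 nm fluorescence with signal-to-noise of each printed compound spot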
Conditions: higher = more signal
Property Label: composite z-score
API note: the answer field is a bare number with no unit suffix.

# compound `NCCCCCNC(=O)[C@H]1C[C@H]2C(=O)N[C@@H](Cc3ccccc3)C(=O)N2[C@H]1c1cccc(OCCO)c1` ; its composite z-score = 1.04

The reported composite z-score of the compound `COC(=O)[C@@]1(Cc2ccc(OC)cc2)[C@H]2c3cc(C(=O)N4CCCC4)n(CCSCCO)c3C[C@H]2CN1C(=O)c1ccccc1` was 1.3

Sample `CN(C)CCCCCCNC(=O)[C@@H]1C[C@@H]2C(=O)N3CCC[C@H]3C(=O)N2[C@@H]1c1ccc(O)cc1` ; composite z-score observed: 0.886

According to the records, this compound `[N-]=[N+]=Nc1ccccc1C[C@@]1(C(=O)N2CCCCC2)N=C(c2ccc(OCCCO)cc2)O[C@@H]1c1ccccc1` displays composite z-score of 0.884

Reference source: PubChem BioAssay
